Measured values drawn from paper PMC3894171 for this set.

Below, each entry is listed with its recorded Kd.
Target desc: hNELF-E (human, UniProt P18615 1-380)
Sequence (P18615 whole entry): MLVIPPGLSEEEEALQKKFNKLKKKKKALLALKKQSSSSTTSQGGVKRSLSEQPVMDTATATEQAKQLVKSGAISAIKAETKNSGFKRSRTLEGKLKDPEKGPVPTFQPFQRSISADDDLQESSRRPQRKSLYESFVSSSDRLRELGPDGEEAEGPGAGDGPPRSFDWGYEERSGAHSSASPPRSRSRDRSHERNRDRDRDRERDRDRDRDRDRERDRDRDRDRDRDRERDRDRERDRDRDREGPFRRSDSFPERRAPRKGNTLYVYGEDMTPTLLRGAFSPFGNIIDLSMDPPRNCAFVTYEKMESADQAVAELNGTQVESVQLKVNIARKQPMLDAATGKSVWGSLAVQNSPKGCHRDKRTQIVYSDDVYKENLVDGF
Test name: fluorescence polarization; 10 mM HEPES-NaOH pH 7.5, 100 mM NaCl, 25 mM KCl, 1 mM MgCl2, 0.02% Tween-20, 0.01% IGEPAL CA-630, 10 µg/ml yeast tRNA; 2 nM RNA, 0-2000 nM protein, 1-2 h, binding temperature not stated; gel 5% acrylamide 0.5X TBE at 4 °C
Condition set: protein: recombinant; tags: N-terminal His6 (pHIS-parallel1); label: 3' fluorescein (5-thiosemicarbazide); hairpin with UCU bulge
Report the figure in nM without appending any unit label.

What value of measured Kd is listed for HIV-1 TAR (structured_RNA) RNA: GGUCUCUCUGGUUAGACCAGAUCUGAGCCUGGGAGCUCUCUGGCUAACUAGGGAACC ?
200

Proceeding to the next binder to report its Kd.
Form field: reported Kd of HIV-1 TAR+A (structured_RNA) RNA: GGUCUCUCUGGUUAGACCAGAUCUGAGCCUGAGGAGCUCUCUGGCUAACUAGGGAACC
250
